Attribution: PubChem BioAssay (NCI)

Tested on: HT29 colon
ASSAY OVERVIEW: NCI tumour cell line growth inhibition, 48 h
Recorded TGI, one value per entry.

- MOLECULE: "C=CCc1c(C)nc(C)nc1N/N=C/C=C/c1ccccc1"
  TGI: "> 100 µM"
- MOLECULE: "O=C1c2sc(-c3ccc(F)cc3)cc2-n2cccc21"
  TGI: "> 100 µM"
- MOLECULE: "CC1(C)Oc2ccc3c(=O)c(-c4ccccc4)c(-c4ccccc4)oc3c2C1C(=O)O (stereo unspecified)"
  TGI: "> 100 µM"
- MOLECULE: "O=C(Nc1ccc(Cl)cc1)NS(=O)(=O)c1coc2ccccc2c1=O"
  TGI: "> 10 µM"
- MOLECULE: "CCSC(SCC)c1cc2c(cc1Br)OCO2"
  TGI: "44.8 µM"

In the following, a different molecule is considered.
Query: What value of TGI on HT29 colon does "COc1ccc(/C=C/C(=O)C(C)(C)CN2CCCCC2)cc1" have?
Reply: 33 µM

----------
Tested on: OVCAR-8 ovarian
ASSAY OVERVIEW: NCI tumour cell line growth inhibition, 48 h
Recorded TGI, one value per entry.
The answer is to be given in µM; state only the numeric part.

Solved cases (4 shown):
- GIVEN SMILES: "CC1=C(C(=O)Nc2ccccc2)C(c2ccc([N+](=O)[O-])cc2)C(C(=O)Nc2ccccc2)=C(C)N1"
  UNIT TAG: "µM"
  TGI: 35.8
- GIVEN SMILES: "O=Cc1ccc(-c2ccc(-c3nc4ccccc4[nH]3)cc2)s1"
  UNIT TAG: "µM"
  TGI: 87.5
- GIVEN SMILES: "O=C1Oc2ccccc2C(=O)/C1=C/N1C(=O)/C(=C/c2ccc3c(c2)OCO3)SC1=S"
  UNIT TAG: "µM"
  TGI: 40.9
- GIVEN SMILES: "Cc1nc2c(O)cc3c4c(=O)n(C)c(=O)n(C)c4n(Cc4ccccc4)c3c2nc1C"
  UNIT TAG: "µM"
  TGI: 33.1

In the following, a different compound is considered.
Query: What value of TGI on OVCAR-8 ovarian does "Oc1cccc(-c2ccc3c4c2O[C@H]2c5[nH]c6ccccc6c5C[C@@]5(O)[C@@H](C3)N(CC3CC3)CC[C@]425)c1" have?
Reply: 3.23

----------
System: SK-MEL-5 melanoma
ASSAY OVERVIEW: NCI tumour cell line growth inhibition, 48 h
Recorded TGI, one value per entry.

Solved cases (8 shown):
- COMPOUND: "CN(C)c1ncnc2c1Cc1ccccc1C(=O)N2C"
  TGI: "> 100 µM"
- COMPOUND: "NC(=O)c1ccc(NS(=O)(=O)c2ccc(N)cc2)nc1"
  TGI: "> 100 µM"
- COMPOUND: "Cc1cccc(-c2nn3c(c2-c2ccnc4ccc(C(N)=O)cc24)CCC3)n1"
  TGI: "> 100 µM"
- COMPOUND: "CCNCCC1(CC)C(=O)NC(=O)NC1=O"
  TGI: "> 100 µM"
- COMPOUND: "C=CC(CBr)CCC(Br)C(C)(C)Br (configuration not stated)"
  TGI: "> 10 µM"
- COMPOUND: "CC(C)CCSC1=CC(=O)c2ccccc2C1=O"
  TGI: "20.1 µM"
- COMPOUND: "O=C(NCCO)c1cc2c(cn1)[nH]c1ccccc12"
  TGI: "> 100 µM"
- COMPOUND: "Cc1ccc2c(c1)C(C)Cc1c(ncnc1-n1cnc3cc(C)ccc31)N2C (configuration not stated)"
  TGI: "0.165 µM"

In the following, a different compound is considered.
Query: What value of TGI on SK-MEL-5 melanoma does "CCOC(=O)[C@@H]1OC(c2ccccc2)O[C@H]1C(=O)OCC" have?
Reply: > 100 µM

----------
Test system: COLO 205 colon
ASSAY OVERVIEW: NCI tumour cell line growth inhibition, 48 h
READOUT KIND: TGI

- COMPOUND: "Cc1ccc2nc(N/N=C/c3ccc(C)s3)cc(C)c2c1"
  TGI: "12.2 µM"
- COMPOUND: "Nc1nc(Cl)cc(NCCCNc2cc(Cl)nc(N)n2)n1"
  TGI: "> 100 µM"

Query: Entry "CCOC(=O)C(Cc1c[nH]c2ccc([N+](=O)[O-])cc12)(NC(C)=O)C(=O)OCC" : reported TGI = ?
Reply: > 1000 µM

Query: Entry "COc1cc2c(c(OC)c1O)-c1ccc(OC)c(=O)cc1[C@@H](NC(=O)C(F)(F)F)CC2" : reported TGI = ?
Reply: 0.0933 µM

Query: Entry "CS/C(C#N)=C(\C#N)SC" : reported TGI = ?
Reply: > 100 µM

----------
System: DMS 273 small cell lung
ASSAY OVERVIEW: NCI tumour cell line growth inhibition, 48 h
Recorded log10 of TGI, one value per entry.
log10 TGI, µM

Solved cases (6 shown):
- COMPOUND: "C=CC(=O)N1C/C(=C\\c2ccccc2)C(=O)/C(=C/c2ccccc2)C1"
  log10 of TGI: 0.33
- COMPOUND: "CCSC(SCC)c1cc2c(cc1Br)OCO2"
  log10 of TGI: 1.30
- COMPOUND: "CCOC(=O)Cc1nc2ccccc2s1"
  log10 of TGI: 1.74
- COMPOUND: "CCN(CC)CC.CCOc1ccc(NC(=O)N=C=[N-])cc1.[CH-]1CCCCC1.[CH-]1CCCCC1.[CH-]1CCCCC1.[Cl-].[Sn+4]"
  log10 of TGI: -1.32
- COMPOUND: "CC1=C(C(=O)Nc2ccccc2)C(c2ccc([N+](=O)[O-])cc2)C(C(=O)Nc2ccccc2)=C(C)N1"
  log10 of TGI: 1.86
- COMPOUND: "Cc1ccc2[nH]c3c(C)c4c(c(C)c3c2c1)CN(C)C=C4"
  log10 of TGI: 0.49

In the following, a different compound is considered.
Query: Entry CC(C)(Br)C(Br)CCC(=CCBr)CBr (mixture of isomers) : reported log10 of TGI = ?
Reply: 0.55

----------
Tested on: MOLT-4 leukemia
ASSAY OVERVIEW: NCI tumour cell line growth inhibition, 48 h; in the data active means GI50 below about 0.43 µM; inactive means the rest
Use one of these outcomes when replying: active, inactive

- COMPOUND: "Cc1cccc(-c2nn3c(c2-c2ccnc4ccc(C(N)=O)cc24)CCC3)n1"
  ANSWER LABEL: "inactive"
- COMPOUND: "O=C1/C=C/[C@@H](O)[C@@H]2C[C@@H](O)C[C@H]2/C=C/CCC[C@H](CCc2ccc(C(F)(F)F)cc2)O1"
  ANSWER LABEL: "active"
- COMPOUND: "NCCCCCCCCn1c2c(c3ccccc3c1=O)C(=O)c1ccccc1-2"
  ANSWER LABEL: "inactive"

Query: Look up the recorded call for CC(C)CC1C(=O)N2CCC[C@H]2C2(O)O[C@](NC(=O)C3C=C4c5cccc6[nH]c(Br)c(c56)C[C@H]4N(C)C3)(C(C)C)C(=O)N12 (stereo partly drawn) in this test.
Reply: inactive

Query: Look up the recorded call for "CCN(CC)CC.CCOc1ccc(NC(=O)N=C=[N-])cc1.[CH-]1CCCCC1.[CH-]1CCCCC1.[CH-]1CCCCC1.[Cl-].[Sn+4]" in this test.
Reply: active

Query: Look up the recorded call for Nc1ccccc1SC(CC(=O)c1ccccc1)c1ccc([N+](=O)[O-])cc1 (stereo not drawn) in this test.
Reply: inactive

Query: Look up the recorded call for "C=CC(=O)N1C/C(=C\c2ccccc2)C(=O)/C(=C/c2ccccc2)C1" in this test.
Reply: inactive

Query: Look up the recorded call for "N.N.N.N.O=NN1CCCCCC1(P(=O)([O-])[O-])P(=O)([O-])[O-].[Pt+4].[Pt+4]" in this test.
Reply: inactive

----------
Recorded TGI, one value per entry.
Test system: IGROV1 ovarian
ASSAY OVERVIEW: NCI tumour cell line growth inhibition, 48 h
Where a SMILES comes first, the peptide text is derived from it. Bridges are numbered along the chain shown (N, C = ends). [ ]: non-standard residue; d: D form. The star is where a group is joined. PhAc = O=C(Cc1ccccc1)*

Solved cases (9 shown):
- COMPOUND: "COc1cc2c(c(OC)c1O)-c1ccc(OC)c(=O)cc1[C@@H](NC(=O)C(F)(F)F)CC2"
  TGI: "0.695 µM"
- COMPOUND: "CCNCCC1(CC)C(=O)NC(=O)NC1=O"
  TGI: "> 100 µM"
- COMPOUND: "O=C(Cc1ccccc1)N[C@@H]1COC(=O)[C@@H]2CCCN2C(=O)[C@@H]2CCCN2C1=O (PhAc-[dS]-Pro-Pro; ester 1-C)"
  TGI: "> 100 µM"
- COMPOUND: "Cc1ccc2nc(N/N=C/c3ccc(C)s3)cc(C)c2c1"
  TGI: "23.6 µM"
- COMPOUND: "O=C1OC2C(O)COC2(O)C1(O)C(C[N+](=O)[O-])c1ccc(Cl)cc1 (stereo not given)"
  TGI: "21.9 µM"
- COMPOUND: "CC(C)/C(Cl)=N/OC(=O)Nc1cccc(C(F)(F)F)c1"
  TGI: "26.6 µM"
- COMPOUND: "Nc1ccc(Oc2ccc(C3(c4ccc(Oc5ccc(N)cc5)cc4)C4CC5C6CC7CC5C3C(C7)C6C4)cc2)cc1"
  TGI: "> 100 µM"
- COMPOUND: "COc1ccc(CC2c3cc(OC)c(OC)c(OC)c3CC[N+]2(C)C)cc1Oc1ccc(CC2c3cc4c(c(OC)c3CC[N+]2(C)C)OCO4)cc1 (stereo not given)"
  TGI: "> 100 µM"
- COMPOUND: "CC(=O)NC(CCCCN(Cc1ccccc1)C(=O)NCCCl)C(=O)NCc1ccccc1 (stereo not given)"
  TGI: "> 100 µM"

In the following, a different compound is considered.
Query: Entry "c1ccc(CSC2(SCc3ccccc3)CCCC2)cc1" : reported TGI = ?
Reply: > 10 µM
